Consider the following compounds; for each one, report its inhibition.
Run description: inhibition of Brca1/Bard1 split-luciferase complementation, confirmation, counter-screen for Mdm2/MdmX interaction inhibitor project, luminescence, single concentration (AID 504668)
Condition details: Brca1/Bard1 bimolecular luciferase complementation counterscreen, at 8 µM, stronger effect = higher value
Active and inactive are the calls of the source. No rule for the calls is given here.

• O=C(N/N=C/c1cc([N+](=O)[O-])ccc1N1CCNCC1)c1ccc([N+](=O)[O-])cc1 = 32.1% (active)
• COc1cc(NS(=O)(=O)c2ccc(N/C=C(\C#N)c3nc4cc(Cl)ccc4o3)cc2)nc(OC)n1 = 35.2% (active)
• CCOC(=O)C1=C(c2ccccc2)NC(=O)NC1c1ccc(O)c(Cl)c1 (stereo unspecified) = 30.5% (active)
• COc1ccc(-c2cn[nH]c2-c2ccc(OC)cc2)cc1 = 35.1% (active)
• CCCc1c(NC(=O)Nc2ccc(F)cc2)cnn1-c1ccccc1 = 29.3% (active)

Return reported inhibition values for all items listed beneath this line.
1. Cc1nc2ccccn2c1C(=O)/C=C/c1cccc([N+](=O)[O-])c1
2. COc1ccc(Nc2ccnc3ccccc23)cc1

1. 27.6% (active)
2. 33.7% (active)

I need inhibition for every entry listed below, if you could help.
1. O=C(N/N=C\c1c(O)ccc2ccccc12)c1ccc(O)cc1
2. CCN(CC)CCNc1cc(C)nc2c1C(=O)C(=O)C=C2N1CCCCC1
3. COc1ccc(N=Nc2ccc(O)c3ncccc23)cc1

1. 31.7% (active)
2. 28.9% (active)
3. 31.7% (active)

Return reported inhibition values for all items listed beneath this line.
1. COc1ccc(NC(=O)c2cc3c(CO)cnc(C)c3oc2=Nc2cccc(F)c2)c(OC)c1
2. COc1ccc(CCNC(=O)c2cc3c(=O)n4ccccc4nc3n(Cc3ccco3)c2=N)cc1OC
3. COc1ccc(C(=O)C(CCCCC(CN(C)C)C(=O)c2ccc(OC)cc2)CN(C)C)cc1 (stereo unspecified)
4. C/C(=N\NC(=O)C1CCCN(S(=O)(=O)c2ccccc2)C1)c1ccccn1 (stereo unspecified)
5. CC1=Nc2cc(C(=O)N3CCCC3)ccc2Sc2c(C)ccc(C)c21

1. 27.9% (active)
2. 26.2% (active)
3. 30.7% (active)
4. 35.2% (active)
5. 23.1% (active)

Hey, quick one: what's inhibition for each of these?
1. COc1ccc(C(NC(=O)C(C)C)c2ccc3cccnc3c2O)cc1 (stereo unspecified)
2. COc1cc([N+](=O)[O-])cc(/C=N/NC(=O)c2ccc(NC(=O)c3ccc(C)cc3)cc2)c1O
3. Oc1ccc(/C=N/Nc2nc(-c3ccccc3F)nc3ccccc23)c(O)c1
4. CC(=O)Oc1c(C)cc(Cl)cc1C(=O)Nc1ccc([N+](=O)[O-])cc1Cl
5. Cc1cccc([C@@H]2[C@@H]3C(=O)N(Cc4ccccc4)C(=O)[C@@H]3[C@]3(C)C(=O)N(c4ccc(C(F)(F)F)cc4)C(=O)N23)c1

28.9% (active)
33.2% (active)
31% (active)
27.7% (active)
33.2% (active)

Dear colleague, could you send me inhibition for each of the items below? Thanks.
1. CCN(C[C@H]1N[C@@](CC)(C(=O)OC)[C@H]2C(=O)N(Cc3ccccc3)C(=O)[C@@H]12)S(=O)(=O)c1ccc(-c2ccccc2)cc1
2. COc1ccc2cc(C(N)=O)c(=Nc3ccc(C)cc3)oc2c1
3. CCc1nc(Nc2ccncc2)c2oc3ccccc3c2n1
4. Cc1ccc(NC(=O)CSc2nc3ccc(Nc4nc(N5CCOCC5)nc(N5CCOCC5)n4)cc3s2)cc1
5. CCN(CC)C(=O)CN1C(=O)/C(=C/c2ccccc2)SC1=S

34% (active)
35.2% (active)
31.6% (active)
26.2% (active)
27.6% (active)

Dear colleague, could you send me inhibition for each of the items below? Thanks.
1. Cc1nc2sc(C(N)=O)c(N)c2c(C)c1CC(=O)c1ccccc1
2. CCCOc1ccc(/C=N/Nc2cc(N3CCOCC3)ncn2)c(O)c1
3. CC(C)(c1ccccc1)c1ccc(OCC(O)CNC2CCN(Cc3ccccc3)CC2)cc1 (stereo unspecified)
4. O=C(CCl)Nc1cccc(S(=O)(=O)N2CCCCCC2)c1
5. Cc1ccc2cccc(NS(=O)(=O)c3ccccc3)c2n1
6. Cc1ccccc1-c1nc(CN2CCC(C(=O)NCCCN3CC(C)CC(C)C3)CC2)c(C)o1 (stereo unspecified)

["31.4% (active)", "23.7% (active)", "35.2% (active)", "24% (active)", "23.1% (active)", "25.7% (active)"]

// input: 7 compounds below; output: inhibition for each
1. CCN(CC)CCCNc1ccc(-c2nnc(-c3ccc(OCC(C)C)cc3)o2)cn1
2. COc1cccc(/C=N/NC(=O)c2[nH]nc3c2CCc2ccccc2-3)c1O
3. COc1ccc(NC(=O)CSc2nc3c(sc4ccccc43)c(=O)n2CCCN2CCCC2)cc1
4. CCc1ccc(CNC(=O)C2CCN(c3nnc(C)c4c(C)n(-c5ccc(C)cc5)nc34)CC2)cc1
5. C/C(=N/NC(=O)CN(c1ccccc1)S(=O)(=O)c1ccccc1)c1ccccc1O
6. O=[N+]([O-])c1ccc(N=Nc2ccc(O)cc2O)cc1
7. O=C(Nc1ccc(OCC(F)(F)C(F)F)c(C(F)(F)F)c1)c1ccc(Cl)cc1

1. 23.9% (active)
2. 27% (active)
3. 23.1% (active)
4. 23.7% (active)
5. 26.8% (active)
6. 29.5% (active)
7. 34% (active)

Field: inhibition. Fill in for each record below.
1. N=c1n(CCO)c2ccccc2n1CCOc1ccc(Cl)cc1Cl
2. CC(C)CC[n+]1ccccc1/C=C/c1ccc(N(C)C)cc1
3. O=C(Nc1ccc(OC(F)(F)F)cc1)Nc1cccc([N+](=O)[O-])c1

1: 25.4% (active); 2: 26.6% (active); 3: 35.8% (active)

----------
Run description: caspase-8 TRAIL sensitization, hit retest, confirmation, cell-based, NB7+caspase-8, with/without TRAIL, luminescence panel (AID 651596)
Condition details: NB7 neuroblastoma + caspase-8, without TRAIL, luminescence viability, without TRAIL, mean of runs, at 10 µM
Please use the following activity ranges when assigning a class: LOW: < 60%; MID: ≥ 60% and < 80%; HIGH: ≥ 80%

• CC(C)c1ccc(OCc2cccc(C(=O)N/N=C/c3cccnc3)c2)cc1 = LOW
• CN(C)c1ccc(-c2nc3ccccc3c(=O)[nH]2)cc1 = HIGH
• CC(C)COCc1ccc(O)c2ncccc12 = LOW
• O=C(Nc1nc2ccccc2[nH]1)c1ccccc1O = MID
• Cc1cccc(/C(N)=N/OC(=O)c2ccccc2Cl)c1 = HIGH

Field: class (activity) — entry: COCCn1c(C)cc(C(=O)CSc2nnc(C)s2)c1C LOW

Which category fits this record: Clc1ccc(-n2ncc3c(N4CCCCCC4)ncnc32)cc1 MID

Band assignment needed for COc1cccc(Cn2c(NCc3cccnc3)nc3c2c(=O)n(C)c(=O)n3C)c1 please. HIGH

State the band of O=C(Nc1nc(=O)c2ccccc2s1)c1ccc(Cl)cc1 MID

----------
Tested system: Sentrin-specific protease 7 (Homo sapiens) (UniProt Q9BQF6)
Run description: SENP7 protease inhibitors, retest, confirmation, biochemical, luminescence, single concentration (AID 488917)
Condition details: recombinant SENP7, Z-RLRGG-aminoluciferin luminescence, 40 min; at 12.5 µM; stronger effect = higher value
The other results are listed elsewhere or left out.
Please respond with reported inhibition for every item in the list.
Give bare numbers, in %.

These recorded examples may help you get a feel for the data.
* CC(C)n1cnc2c(NCc3ccccc3)cc(OCC3CCN(C)CC3)cc21 | 35.5
* Cc1cccc(Nc2nc(-c3ccccc3)cs2)n1 | 99.9
* FC(F)(F)c1ccnc(Oc2ccc(C3=NCCS3)cc2)c1 | 53.1

Give inhibition for each listed item.
1. Cc1ccc(-n2ncc3c(Nc4cccc(C(=O)O)c4)ncnc32)cc1
2. Cc1ccc2nc(-c3ccc(Br)cc3)cn2c1

[102, 70]

Record summary for Cc1ccccc1C(=O)Nc1ccc(N2CCCCCC2)cc1 : reported inhibition = 91.7

----------
Run description: caspase-8 TRAIL sensitization, hit retest, confirmation, cell-based, NB7+caspase-8, with/without TRAIL, luminescence panel (AID 651596)
Condition details: NB7 neuroblastoma + caspase-8, without TRAIL, luminescence viability, without TRAIL, mean of runs, at 10 µM
Mark 1.0 for activity under 70%, 0.0 if at or over.

- Cc1cccc(N2CCN(S(=O)(=O)c3ccc4c(c3)NC(=O)C(C)S4)CC2)c1C (stereo unspecified): 1.0
- O=C(c1ccccc1)n1c(=S)nc2ccccn21: 0.0
- Cc1ccc(C2CC(c3cccs3)=NN2C(=O)CCl)cc1 (stereo unspecified): 0.0
- Nc1nc2ccccc2n1C(=O)c1ccc(F)cc1: 0.0
- C=CCOC(=O)c1sc(NC(=O)c2ccco2)nc1C: 1.0

Item Cn1c(/C=C/c2ccc([N+](=O)[O-])o2)nc2ccccc2c1=O : activity beneath 70%, strictly? 0.0

Consider COc1cc(NCCCCC(C)N)c2nccc(C)c2c1 (stereo unspecified) . Does its activity lie strictly below 70%? 1.0

is_below(activity, 70%) for COc1ccc(C)cc1NC(=O)CN(Cc1nnc(-c2ccc(Cl)cc2)o1)C1CCCC1 ? 0.0

Hello, is activity of the following molecule strictly smaller than 70%? O=C1Nc2ccccc2N(C(=O)c2c(F)cccc2F)C1c1nc2ccccc2[nH]1 (stereo unspecified) 1.0

Hello, I'm reviewing records and need to know if activity of C#Cc1ccc(NC(=O)C2(C)CCN2C(=O)C2(c3ccccc3)CCCC2)cc1 (stereo unspecified) is below 70%. Could you check? 0.0
